- Procedure Text: folding stability dG unfold (combined trypsin and chymotrypsin); higher = more stable
Value Type: folding stability dG unfold

[[record]]
sequence_chain = "SAGGSAGGSAGGPEEPEKLTLRVTLTFYNPETQEPVEEVEVEITLTAEDLKEGKITITPSAGGSAGGSAGGS [r10_672_TrROS_Hall]"
reported_measurement = "2.32 kcal/mol"

[[record]]
sequence_chain = "SAGGSAKGKKTRTITIMAPFDNKEEAREQAEEIADNIMNNLPDDMKIKVEVSWNPEDNYVMATIRISAGGSA [r15_981_TrROS]"
reported_measurement = "0.707 kcal/mol"

[[record]]
sequence_chain = "SAGGSAGGSAGGMPVTLNVTVKTKDPDGVAATETVTLTFSSPEEALAAIKAAYPNSTIESAGGSAGGSAGGS [r10_1248_JUSTAS]"
reported_measurement = "1.15 kcal/mol"

